Attribute: IC50
test system: AGS cells (KRAS G12D); experiment: Cell viability assay (Cell Counting Kit-8, 3-day); type: cell-based, human; settings: Homo sapiens, 72 h, 72 hrs incubation
Give me the value, and tack the unit on after it.

Some entries whose results are on file:
Molecule: COCCN1CCN(c2cnc([C@H](C)OC)c(-c3c4c5cc(cc6c5n3CCC6)-c3csc(n3)C[C@H](NC(=O)[C@H]3[C@H](C)[C@@H]3C)C(=O)N3CCC[C@H](N3)C(=O)OCC(C)(C)C4)c2)CC1 (atropisomer, axis not shown; (M)) [Example 115]
Test value: 3.4 nM
//
Molecule: CO[C@@H](C)c1ncc(N2CCN(C)CC2)cc1-c1c2c3cc(cc4c3n1CC(F)(F)C4)-c1csc(n1)C[C@H](NC(=O)[C@H]1C[C@@H]1c1ccccc1)C(=O)N1CCC[C@H](N1)C(=O)OCC(C)(C)C2 (atropisomer, axis not shown; (M)) [Example 78]
Test value: 30.6 nM
//
Molecule: CO[C@@H](C)c1ncc(N2CCN(C)CC2)cc1-c1c2c3cc(cc4c3n1CCC4)-c1csc(n1)C[C@H](NC(=O)[C@H]1C[C@@H]1c1ccncn1)C(=O)N1CCC[C@H](N1)C(=O)OCC(C)(C)C2 (atropisomer, axis not shown; (M)) [Example 50]
Test value: 72.6 nM
//
Molecule: CO[C@@H](C)c1ncc(N2CCN(CC(F)(F)F)CC2)cc1-c1c2c3cc(cc4c3n1CCO4)-c1csc(n1)C[C@H](NC(=O)[C@H]1C[C@@H]1c1cccnc1)C(=O)N1CCC[C@H](N1)C(=O)OCC(C)(C)C2 (atropisomer, axis not shown; (M)) [Example 98]
Test value: 8.1 nM
//
Molecule: CO[C@@H](C)c1ncc(N2CCOCC2)cc1-c1c2c3cc(cc4c3n1CC(C)(C)O4)-c1csc(n1)C[C@H](NC(=O)[C@H]1[C@H](C)[C@@H]1C)C(=O)N1CCC[C@H](N1)C(=O)OCC(C)(C)C2 (atropisomer, axis not shown; (M)) [Example 61]
Test value: 33.4 nM
//
Molecule: CO[C@@H](C)c1ncc(N2CCN(C)CC2)cc1-c1c2c3cc(cc4c3n1CCO4)-c1csc(n1)C[C@H](NC(=O)C1(C)CC1C)C(=O)N1CCC[C@H](N1)C(=O)OCC(C)(C)C2 (some centres unmarked) [Example 55]
Test value: 69.1 nM
//
Molecule: CO[C@@H](C)c1ncc(N2CCN(C)CC2)cc1-c1c2c3cc(cc4c3n1CCC4)-c1csc(n1)C[C@H](NC(=O)[C@@H]1C[C@H]1c1ccccc1F)C(=O)N1CCC[C@H](N1)C(=O)OCC(C)(C)C2 [Example 28]
Test value: 22.3 nM

Could you now consider this next molecule?
Give its IC50 value. Item: CO[C@@H](C)c1ncc(N2CCN3CCCC[C@@H]3C2)cc1-c1c2c3cc(cc4c3n1CCC4)-c1csc(n1)C[C@H](NC(=O)[C@H]1[C@H](C)[C@@H]1C)C(=O)N1CCC[C@H](N1)C(=O)OCC(C)(C)C2 (atropisomer, axis not shown; (M)) [Example 101]
6.9 nM

----------
system: SW620 cells (KRAS G12V); assay: Cell viability assay (Cell Counting Kit-8, 3-day); type: cell-based, human; conditions: Homo sapiens, SW-620; SW620, 72 hrs incubation
Quick reference: IC50 of the listed items.
I only need the number, in nM, no unit after it.

Please review the entries below; each comes with its answer.
Compound: CO[C@@H](C)c1ncc(N2CCN(C)CC2)cc1-c1c2c3cc(cc4c3n1CCO4)-c1csc(n1)C[C@H](NC(=O)C1(C)CC1C)C(=O)N1CCC[C@H](N1)C(=O)OCC(C)(C)C2 (stereo partly shown) [Example 55]
Reading unit: nM
IC50: 5.6
--
Compound: CO[C@@H](C)c1ncc(N2CCN(C)CC2)cc1-c1c2c3cc(cc4c3n1CCC4)-c1csc(n1)C[C@H](NC(=O)[C@H]1C[C@@H]1c1ccncn1)C(=O)N1CCC[C@H](N1)C(=O)OCC(C)(C)C2 (atropisomer, axis not shown; (M)) [Example 50]
Reading unit: nM
IC50: 3.8

Now look at this one.
IC50 lookup needed for CCN1CCN(c2cnc([C@H](C)OC)c(-c3c4c5cc(cc6c5n3CCC6)-c3csc(n3)C[C@H](NC(=O)[C@H]3[C@H](C)[C@@H]3C)C(=O)N3CCC[C@H](N3)C(=O)OCC(C)(C)C4)c2)CC1 (atropisomer, axis not shown; (M)) [Example 113] , thanks.
0.3

----------
tested on: AGS cells (KRAS G12D); test: Cell viability assay (Cell Counting Kit-8, 3-day); type: cell-based, human; conditions: Homo sapiens, 72 h, 72 hrs incubation
Reported endpoint: pIC50
# reply with the number alone; pIC50 is -log10 of concentration in mol/L

Below: 5 compounds and their reported pIC50.
Compound: CO[C@@H](C)c1ncc(N2CCN(CCCO)CC2)cc1-c1c2c3cc(cc4c3n1CCC4)-c1csc(n1)C[C@H](NC(=O)[C@H]1[C@H](C)[C@@H]1C)C(=O)N1CCC[C@H](N1)C(=O)OCC(C)(C)C2 (atropisomer, axis not shown; (M))
Test value: 9.10
--
Compound: CO[C@@H](C)c1ncc(N2CCN(CC(F)(F)F)CC2)cc1-c1c2c3cc(cc4c3n1CCO4)-c1csc(n1)C[C@H](NC(=O)[C@H]1C[C@@H]1c1ccccc1)C(=O)N1CCC[C@H](N1)C(=O)OCC(C)(C)C2 (atropisomer, axis not shown; (M))
Test value: 7.47
--
Compound: CO[C@@H](C)c1ncc(N2CCN(C)CC2)cc1-c1c2c3cc(cc4c3n1CCO4)-c1csc(n1)C[C@H](NC(=O)[C@H]1C[C@@H]1C(F)F)C(=O)N1CCC[C@H](N1)C(=O)OCC(C)(C)C2 (atropisomer, axis not shown; (M))
Test value: 7.91
--
Compound: CO[C@@H](C)c1ncc(N2CCN(C)CC2)cc1-c1c2c3cc(cc4c3n1CCC4)-c1csc(n1)C[C@H](NC(=O)[C@H]1C[C@@H]1c1cccnn1)C(=O)N1CCC[C@H](N1)C(=O)OCC(C)(C)C2 (atropisomer, axis not shown; (M))
Test value: 7.11
--
Compound: CO[C@@H](C)c1ncc(N2CCN(CC(F)(F)F)CC2)cc1-c1c2c3cc(cc4c3n1CCO4)-c1csc(n1)C[C@H](NC(=O)[C@H]1C[C@@H]1C)C(=O)N1CCC[C@H](N1)C(=O)OCC(C)(C)C2 (atropisomer, axis not shown; (M))
Test value: 7.15

Could you share which pIC50 value was measured for CO[C@@H](C)c1ncc(N2CCN(C)CC2)cc1-c1c2c3cc(c(F)c4c3n1CCC4)-c1csc(n1)C[C@H](NC(=O)[C@H]1[C@H](C)[C@@H]1C)C(=O)N1CCC[C@H](N1)C(=O)OCC(C)(C)C2 (atropisomer, axis not shown; (M)) ?
7.86

Please look up its pIC50: CO[C@@H](C)c1ncc(N2CCN3CCOC[C@@H]3C2)cc1-c1c2c3cc(cc4c3n1CCC4)-c1csc(n1)C[C@H](NC(=O)[C@H]1C[C@@H]1c1cccnc1)C(=O)N1CCC[C@H](N1)C(=O)OCC(C)(C)C2 (atropisomer, axis not shown; (M))
8.42

Request the reported pIC50 associated with CO[C@@H](C)c1ncc(N2CCN3CCCC[C@@H]3C2)cc1-c1c2c3cc(cc4c3n1CCC4)-c1csc(n1)C[C@H](NC(=O)[C@H]1C[C@@H]1c1cccnc1)C(=O)N1CCC[C@H](N1)C(=O)OCC(C)(C)C2 (atropisomer, axis not shown; (M))
8.31

Data request, read-out pIC50, for CO[C@@H](C)c1ncc(N2CCN3CCOC[C@@H]3C2)cc1-c1c2c3cc(cc4c3n1CCC4)-c1csc(n1)C[C@H](NC(=O)[C@H]1C[C@@H]1C(F)F)C(=O)N1CCC[C@H](N1)C(=O)OCC(C)(C)C2 (atropisomer, axis not shown; (M))
7.85

Record request: pIC50 value, item CO[C@@H](C)c1ncc(N2CCN3CCCC[C@@H]3C2)cc1-c1c2c3cc(cc4c3n1CCC4)-c1csc(n1)C[C@H](NC(=O)[C@H]1C[C@@H]1c1cncnc1)C(=O)N1CCC[C@H](N1)C(=O)OCC(C)(C)C2 (atropisomer, axis not shown; (M))
8.28

----------
Quick reference for IC20 among some compounds
biological target: hERG potassium channel (Homo sapiens (Human), UniProt Q12809); assay: hERG potassium channel assay (manual patch clamp, CHO cells); format: cell-based; details: human, CHO cells stably transfected with hERG channel; 34° C., manual patch, CHO cells
Sequence (Q12809 whole entry): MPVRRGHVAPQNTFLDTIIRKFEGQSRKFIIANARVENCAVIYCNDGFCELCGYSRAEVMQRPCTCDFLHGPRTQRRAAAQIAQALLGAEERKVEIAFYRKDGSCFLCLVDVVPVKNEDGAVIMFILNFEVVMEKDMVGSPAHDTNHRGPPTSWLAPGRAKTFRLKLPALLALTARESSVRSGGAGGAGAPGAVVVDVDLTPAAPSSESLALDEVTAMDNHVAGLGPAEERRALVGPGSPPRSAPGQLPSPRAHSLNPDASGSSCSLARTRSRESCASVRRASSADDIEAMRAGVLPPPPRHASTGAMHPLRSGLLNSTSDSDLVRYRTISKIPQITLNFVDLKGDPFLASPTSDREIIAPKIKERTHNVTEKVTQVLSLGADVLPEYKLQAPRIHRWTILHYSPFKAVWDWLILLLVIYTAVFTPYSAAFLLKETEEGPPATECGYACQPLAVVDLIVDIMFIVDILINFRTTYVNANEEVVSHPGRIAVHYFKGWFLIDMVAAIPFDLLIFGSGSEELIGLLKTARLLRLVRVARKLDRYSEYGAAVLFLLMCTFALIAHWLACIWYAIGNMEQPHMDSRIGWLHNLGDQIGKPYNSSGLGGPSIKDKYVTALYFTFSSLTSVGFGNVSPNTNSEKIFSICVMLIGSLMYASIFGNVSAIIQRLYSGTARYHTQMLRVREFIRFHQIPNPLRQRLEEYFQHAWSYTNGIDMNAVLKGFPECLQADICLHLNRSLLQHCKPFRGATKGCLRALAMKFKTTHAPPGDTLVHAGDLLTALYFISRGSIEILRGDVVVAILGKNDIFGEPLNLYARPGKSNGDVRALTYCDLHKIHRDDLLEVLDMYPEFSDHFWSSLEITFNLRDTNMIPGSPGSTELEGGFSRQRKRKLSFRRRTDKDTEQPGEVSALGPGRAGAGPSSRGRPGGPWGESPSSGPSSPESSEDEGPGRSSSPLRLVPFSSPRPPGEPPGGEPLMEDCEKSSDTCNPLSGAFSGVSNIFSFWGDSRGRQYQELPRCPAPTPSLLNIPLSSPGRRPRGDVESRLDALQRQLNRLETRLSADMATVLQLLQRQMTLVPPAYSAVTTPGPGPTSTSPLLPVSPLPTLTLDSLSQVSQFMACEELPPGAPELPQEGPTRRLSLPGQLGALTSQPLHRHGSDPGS
# value in µM; strip the unit string

Previously resolved entries follow.
Compound: CCn1c(-c2cc(N3CCN(C)CC3)cnc2[C@H](C)OC)c2c3cc(ccc31)-c1csc(n1)C[C@H](NC(=O)[C@H]1[C@H](C)[C@@H]1C)C(=O)N1CCC[C@H](N1)C(=O)OCC(C)(C)C2 [Example A252, reference compound]
Test value: 3

Compound: CCn1c(-c2cc(N3CCN(C)CC3)cnc2[C@H](C)OC)c2c3cc(ccc31)-c1csc(n1)C[C@H](NC(=O)[C@H]1C[C@@H]1C)C(=O)N1CCC[C@H](N1)C(=O)OCC(C)(C)O2 [Example A122, reference compound]
Test value: 4.6

Consider the additional compound presented here.
Could you share which IC20 value was measured for CO[C@@H](C)c1ncc(N2CCN(C)CC2)cc1-c1c2c3cc(cc4c3n1CCC4)-c1csc(n1)C[C@H](NC(=O)[C@H]1[C@H](C)[C@@H]1C)C(=O)N1CCC[C@H](N1)C(=O)OCC(C)(C)C2 (atropisomer, axis not shown; (M)) ?
13.8
